- measurement_target: human PDHK2 (hPDHK2) (Homo sapiens (Human), UniProt Q15119)
- assay_overview: Inhibitory action of PDHK2 activity in vitro (residual PDH activity after kinase reaction)
- Format: biochemical
- condition_label: monohydrate
- Description: The inhibitory action of PDHK activity was assessed indirectly by measuring the residual PDH activity after kinase reaction in the presence of a test compound. In the case of human PDHK2 (hPDHK2, Genbank Accession No. BC040478.1), modified hPDHK2 cDNA wherein FLAG-Tag sequence was added to the N terminus of hPDHK2 cDNA clone (pReceiver-M01/PDK2-GeneCopoeia) was prepared by PCR and cloned into a vector (pET17b-Novagen). The recombinant construct was transformed into Escherichia coli (DH5α-TOYOBO). […]
measurement_kind: pIC50
Please keep in mind that pIC50 is minus log10 of the molar concentration; only the number is needed.

Reported pIC50, compound CC(C)(O)CCOc1cc(-c2cnn(C(C)(C)C(N)=O)c2)c2c(c1)[C@@](O)(C(F)(F)F)c1ccccc1-2 [Compound (2h), monohydrate] : ____ 8.31

----------
- assay_overview: Metabolic stability test in rat liver microsome
- Type: in vitro ADME
- condition_label: 10 min
measurement_kind: Stability in liver microsome (residual ratio %)
Quick reminder: number only, in %, skip the unit.

Here is how some compounds turned out for Stability in liver microsome (residual ratio %).
compound="NC(=O)Cn1cc(-c2cc(OCCC34CC5CC(CC(O)(C5)C3)C4)cc3c2-c2ccccc2[C@]3(O)C(F)(F)F)cn1 [Compound (A)]" recorded_number=24.8
compound="CC(C)(O)CCOc1cc(-c2cnn(C(C)(C)C(N)=O)c2)c2c(c1)[C@@](O)(C(F)(F)F)c1ccccc1-2 [Compound (2)]" recorded_number=98.8
compound="Cn1cc(-c2cc(OCC(C)(C)O)cc3c2-c2ccccc2[C@]3(O)C(F)(F)F)cn1 [Compound (B)]" recorded_number=101.1

In the following, a different compound is considered.
# input compound: CC(C)(O)CCCOc1cc(-c2cnn(C(C)(C)C(N)=O)c2)c2c(c1)[C@@](O)(C(F)(F)F)c1ccccc1-2 [Compound (3)] ; wanted: its Stability in liver microsome (residual ratio %) 102.7

----------
- measurement_target: hERG current in hERG-transfected HEK293 cells (Homo sapiens (Human))
- assay_overview: hERG whole cell patch clamp test
- condition_label: whole cell patch clamp
pIC50: −log10 of the molar value.
measurement_kind: pIC50

compound_structure=CC(C)(O)CCOc1cc(-c2cnn(C(C)(C)C(N)=O)c2)c2c(c1)[C@@](O)(C(F)(F)F)c1ccccc1-2 result="< 4.52"

Give its pIC50 value. Item: CC(C)(O)CCCOc1cc(-c2cnn(C(C)(C)C(N)=O)c2)c2c(c1)[C@@](O)(C(F)(F)F)c1ccccc1-2 < 4.52

----------
// values below are IC50; system is human PDHK1 (hPDHK1) (Homo sapiens (Human), UniProt Q15118)
Sequence (Q15118 29-436): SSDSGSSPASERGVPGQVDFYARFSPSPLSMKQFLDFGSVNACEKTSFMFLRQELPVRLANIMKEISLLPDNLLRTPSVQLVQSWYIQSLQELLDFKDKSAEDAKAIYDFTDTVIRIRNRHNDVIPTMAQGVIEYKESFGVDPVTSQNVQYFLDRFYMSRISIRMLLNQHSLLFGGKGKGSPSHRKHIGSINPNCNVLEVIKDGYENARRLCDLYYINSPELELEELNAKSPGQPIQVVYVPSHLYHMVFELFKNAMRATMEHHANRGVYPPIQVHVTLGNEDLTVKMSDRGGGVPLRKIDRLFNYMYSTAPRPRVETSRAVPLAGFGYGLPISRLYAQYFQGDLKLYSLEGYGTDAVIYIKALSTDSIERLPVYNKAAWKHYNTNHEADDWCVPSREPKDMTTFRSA
Enter your answer as a number in nM; do not include the unit.

compound="CC(C)(O)CCOc1cc(-c2cnn(C(C)(C)C(N)=O)c2)c2c(c1)[C@@](O)(C(F)(F)F)c1ccccc1-2 [Compound (2)]" recorded_number=4.7
compound=CC(C)(O)CCCOc1cc(-c2cnn(C(C)(C)C(N)=O)c2)c2c(c1)[C@@](O)(C(F)(F)F)c1ccccc1-2 recorded_number=3.5

// moving on: another record for IC50
// map CC(C)(O)CCOc1cc(-c2cnn(C(C)(C)C(N)=O)c2)c2c(c1)[C@@](O)(C(F)(F)F)c1ccccc1-2 [Compound (2h), monohydrate] to recorded IC50 (system: human PDHK1 (hPDHK1) (Homo sapiens (Human), UniProt Q15118)) 6.6

----------
- Tested on: liver PDH activity
- assay_overview: Ex vivo PDH activation assay, liver
- Type: in vivo, Sprague-Dawley rats
- condition_label: Table 2, 5 hr after oral 3 mg/kg, non-fasting SD rats, vehicle 13 ± 3, mean ± S.D. (n = 3)
Parameter PDHa activity (% of PDHt activity): see the listing below.

Use the examples below as a reference point.
molecule=CC(C)(O)COc1cc(-c2cnn(CCO)c2)c2c(c1)[C@@](O)(C(F)(F)F)c1ccccc1-2 result="44 ± 5 % of PDHt activity"
molecule="CC(C)(O)CCOc1cc(-c2cnn(C(C)(C)C(N)=O)c2)c2c(c1)[C@@](O)(C(F)(F)F)c1ccccc1-2 [Compound (2h), monohydrate]" result="59 ± 6 % of PDHt activity"
molecule=NC(=O)Cn1cc(-c2cc(OCCC34CC5CC(CC(O)(C5)C3)C4)cc3c2-c2ccccc2[C@]3(O)C(F)(F)F)cn1 result="35 ± 6 % of PDHt activity"

Value lookup for PDHa activity (% of PDHt activity); key = CC(C)(O)CCCOc1cc(-c2cnn(C(C)(C)C(N)=O)c2)c2c(c1)[C@@](O)(C(F)(F)F)c1ccccc1-2 56 ± 8 % of PDHt activity

Form field: reported PDHa activity (% of PDHt activity) of Cn1cc(-c2cc(OCC(C)(C)O)cc3c2-c2ccccc2[C@]3(O)C(F)(F)F)cn1 43 ± 7 % of PDHt activity

Which PDHa activity (% of PDHt activity) reading was recorded for the molecule CC(C)(C(N)=O)n1cc(-c2cc(F)cc3c2-c2ccccc2[C@]3(O)C(F)(F)F)cn1 ? 41 ± 15 % of PDHt activity

----------
- assay_overview: Metabolic stability test in human liver microsome
- Assay type: in vitro ADME
- condition_label: 60 min, 5 μM, 37° C.
- Procedure: Human liver microsome (manufactured by Xenotech, H0620, final concentration (after dilution), 0.2 mg protein/mL) was suspended in 100 mM potassium phosphate buffer (pH 7.4, containing β-nicotinamide adenine dinucleotide phosphate: 1.3 mM, D-glucose-6-phosphate: 3.3 mM, magnesium chloride: 3.3 mM, glucose-6-phosphate dehydrogenase: 0.45 U/mL), and further mixed with a test compound dissolved in MeCN/DMSO (95/5) (final concentration 5 μM). […]
measurement_kind: Stability in liver microsome (residual ratio %)
API: value field is a number in %; no unit string.

Recorded Stability in liver microsome (residual ratio %), per entry:
compound_structure=Cn1cc(-c2cc(OCC(C)(C)O)cc3c2-c2ccccc2[C@]3(O)C(F)(F)F)cn1 recorded_number=88.2
compound_structure=CC(C)(O)CCCOc1cc(-c2cnn(C(C)(C)C(N)=O)c2)c2c(c1)[C@@](O)(C(F)(F)F)c1ccccc1-2 recorded_number=85.9
compound_structure=NC(=O)Cn1cc(-c2cc(OCCC34CC5CC(CC(O)(C5)C3)C4)cc3c2-c2ccccc2[C@]3(O)C(F)(F)F)cn1 recorded_number=0.0

Request the reported Stability in liver microsome (residual ratio %) associated with CC(C)(O)CCOc1cc(-c2cnn(C(C)(C)C(N)=O)c2)c2c(c1)[C@@](O)(C(F)(F)F)c1ccccc1-2 96.5

----------
- measurement_target: hERG current in hERG-transfected HEK293 cells (Homo sapiens (Human), UniProt Q12809)
- Sequence (Q12809 whole entry): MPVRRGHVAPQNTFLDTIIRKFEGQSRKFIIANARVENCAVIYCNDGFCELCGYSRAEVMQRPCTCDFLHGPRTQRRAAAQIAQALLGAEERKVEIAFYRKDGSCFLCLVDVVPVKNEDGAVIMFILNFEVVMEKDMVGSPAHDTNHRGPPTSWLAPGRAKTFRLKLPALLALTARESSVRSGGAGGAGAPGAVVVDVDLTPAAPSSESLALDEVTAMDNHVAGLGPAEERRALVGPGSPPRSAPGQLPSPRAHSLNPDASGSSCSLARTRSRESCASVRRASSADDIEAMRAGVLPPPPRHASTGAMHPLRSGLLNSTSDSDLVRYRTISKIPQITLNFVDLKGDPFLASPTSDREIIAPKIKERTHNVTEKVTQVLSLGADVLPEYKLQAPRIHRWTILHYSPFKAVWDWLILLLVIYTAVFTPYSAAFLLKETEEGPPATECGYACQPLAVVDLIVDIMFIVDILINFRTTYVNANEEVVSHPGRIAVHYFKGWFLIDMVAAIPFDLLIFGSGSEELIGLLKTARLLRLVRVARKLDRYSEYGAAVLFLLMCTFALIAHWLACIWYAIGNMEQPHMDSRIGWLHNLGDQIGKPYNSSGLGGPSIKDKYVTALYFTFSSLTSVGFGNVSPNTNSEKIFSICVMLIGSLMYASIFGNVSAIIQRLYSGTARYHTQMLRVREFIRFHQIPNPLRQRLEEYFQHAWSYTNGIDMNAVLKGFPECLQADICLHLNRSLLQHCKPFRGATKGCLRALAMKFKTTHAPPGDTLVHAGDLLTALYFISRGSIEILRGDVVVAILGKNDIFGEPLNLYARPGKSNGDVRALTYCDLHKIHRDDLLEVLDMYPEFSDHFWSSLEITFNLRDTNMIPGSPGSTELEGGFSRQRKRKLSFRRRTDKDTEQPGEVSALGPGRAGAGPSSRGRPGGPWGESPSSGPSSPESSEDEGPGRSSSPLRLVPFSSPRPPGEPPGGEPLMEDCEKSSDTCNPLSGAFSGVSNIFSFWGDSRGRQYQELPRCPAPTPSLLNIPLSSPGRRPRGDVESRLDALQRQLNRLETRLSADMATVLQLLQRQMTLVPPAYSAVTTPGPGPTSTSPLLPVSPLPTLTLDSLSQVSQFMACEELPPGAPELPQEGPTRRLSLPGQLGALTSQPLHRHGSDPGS
- assay_overview: hERG whole cell patch clamp test
- Format: cell-based
- condition_label: 30 μmol/L
measurement_kind: hERG current Inhibition rate (%)
Quick reminder: number only, in %, skip the unit.

The cases that follow already have their hERG current Inhibition rate (%) on record.
compound="CC(C)(O)CCOc1cc(-c2cnn(C(C)(C)C(N)=O)c2)c2c(c1)[C@@](O)(C(F)(F)F)c1ccccc1-2 [Compound (2)]" measurement_kind="hERG current Inhibition rate (%)" recorded_number=24.4
compound="CC(C)(O)CCCOc1cc(-c2cnn(C(C)(C)C(N)=O)c2)c2c(c1)[C@@](O)(C(F)(F)F)c1ccccc1-2 [Compound (3)]" measurement_kind="hERG current Inhibition rate (%)" recorded_number=27.3
compound="CC(C)(C(N)=O)n1cc(-c2cc(F)cc3c2-c2ccccc2[C@]3(O)C(F)(F)F)cn1 [Compound (D)]" measurement_kind="hERG current Inhibition rate (%)" recorded_number=67.5

I am curious: what hERG current Inhibition rate (%) value has been reported for CC(C)(O)COc1cc(-c2cnn(CCO)c2)c2c(c1)[C@@](O)(C(F)(F)F)c1ccccc1-2 [Compound (C)] ? 69.0

----------
- assay_overview: Metabolic stability test in rat liver microsome
- Assay type: in vitro ADME
- condition_label: 60 min
Overview of reported Stability in liver microsome (residual ratio %) across a group of compounds:
Please reply with the bare figure in % and do not write the unit itself.

Look over these answered cases.
compound="NC(=O)Cn1cc(-c2cc(OCCC34CC5CC(CC(O)(C5)C3)C4)cc3c2-c2ccccc2[C@]3(O)C(F)(F)F)cn1 [Compound (A)]" recorded_number=0.0
compound="Cn1cc(-c2cc(OCC(C)(C)O)cc3c2-c2ccccc2[C@]3(O)C(F)(F)F)cn1 [Compound (B)]" recorded_number=92.1

Requested field: Stability in liver microsome (residual ratio %). Item: CC(C)(O)CCCOc1cc(-c2cnn(C(C)(C)C(N)=O)c2)c2c(c1)[C@@](O)(C(F)(F)F)c1ccccc1-2 [Compound (3)] 95.8

// lookup Stability in liver microsome (residual ratio %) for CC(C)(O)CCOc1cc(-c2cnn(C(C)(C)C(N)=O)c2)c2c(c1)[C@@](O)(C(F)(F)F)c1ccccc1-2 [Compound (2)] 100.0
